Numbers sourced from patent US9056865B2.

Assay: Assessment of brain penetration in rats
Format: in vivo
Details: rat, CSF, sc; Wistar rats, 10 mg/kg subcutaneously, 1 hour; read-out: CSF concentration

sample smiles: Cc1cnc(-c2cc(N3CCN(C(=O)CCS(C)(=O)=O)CC3)ncc2Cl)c(C)c1
unit of measure: ng/mL
concentration at 1 h: 64.4

* * *

Target: human Smo (Homo sapiens (Human), UniProt Q99835)
Sequence (Q99835 181-787): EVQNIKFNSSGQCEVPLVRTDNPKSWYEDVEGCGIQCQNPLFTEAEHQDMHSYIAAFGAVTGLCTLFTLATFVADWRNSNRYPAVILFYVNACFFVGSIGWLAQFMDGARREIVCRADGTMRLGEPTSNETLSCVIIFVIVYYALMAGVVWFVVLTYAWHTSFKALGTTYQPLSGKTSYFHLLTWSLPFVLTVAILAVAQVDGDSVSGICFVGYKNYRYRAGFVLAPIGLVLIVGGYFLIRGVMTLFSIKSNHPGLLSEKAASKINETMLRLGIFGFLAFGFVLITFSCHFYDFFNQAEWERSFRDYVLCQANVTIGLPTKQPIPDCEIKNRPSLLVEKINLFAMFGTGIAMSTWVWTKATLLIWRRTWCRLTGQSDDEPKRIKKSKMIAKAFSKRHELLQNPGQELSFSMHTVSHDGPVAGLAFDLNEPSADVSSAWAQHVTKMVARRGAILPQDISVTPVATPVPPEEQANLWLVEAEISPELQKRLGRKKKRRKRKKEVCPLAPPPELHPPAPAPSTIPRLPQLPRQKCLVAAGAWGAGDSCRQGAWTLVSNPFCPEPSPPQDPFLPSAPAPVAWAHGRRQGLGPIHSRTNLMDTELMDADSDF
Assay: Smo radioligand competition binding assay
Settings: 0.05 μM test compound; read-out: Smo % inh. @ 0.05 μM

compound: CC(=O)N1CCN(c2ncc(Cl)c(-c3ncccc3C)n2)CC1 [Example A-26]
study system: human Smo (Homo sapiens (Human), UniProt Q99835)
inhibition at 0.05 µM: 69.9%
//
compound: COC(=O)N1CCN(c2cc(-c3ncc(C)cc3C)c(Cl)cn2)CC1 [Example A-101]
study system: human Smo (Homo sapiens (Human), UniProt Q99835)
inhibition at 0.05 µM: 89%
//
compound: CN(C)CC(=O)NC1CCN(c2ccc(Cl)c(-c3ccccn3)n2)CC1 [Example A-129]
study system: human Smo (Homo sapiens (Human), UniProt Q99835)
inhibition at 0.05 µM: 88.4%
//
compound: COC(=O)NC1CCN(c2cc(-c3ncccc3C)c(Cl)cn2)CC1 [Example A-32]
study system: human Smo (Homo sapiens (Human), UniProt Q99835)
inhibition at 0.05 µM: 86.6%
//
compound: COC(=O)N1CCN(c2cc(-c3ncccc3C)c(Cl)cn2)CC1 [Example A-24]
study system: human Smo (Homo sapiens (Human), UniProt Q99835)
inhibition at 0.05 µM: 69.3%
//
compound: Cc1cc(F)cnc1-c1cc(N2CCN(S(=O)(=O)CC(C)(C)O)CC2)ncc1Cl [Example A-152]
study system: human Smo (Homo sapiens (Human), UniProt Q99835)
inhibition at 0.05 µM: 95.9%
//
compound: Cc1cccnc1-c1cc(N2CCN(c3ccc(C#N)cn3)CC2)ncc1Cl [Example A-19]
study system: human Smo (Homo sapiens (Human), UniProt Q99835)
inhibition at 0.05 µM: 91.5%
//
compound: Cc1cccnc1-c1cc(N2CCC(C(=O)NCc3ncc[nH]3)CC2)ncc1Cl [Example A-54]
study system: human Smo (Homo sapiens (Human), UniProt Q99835)
inhibition at 0.05 µM: 86.1%
//
compound: Cc1cnc(-c2cc(N3CCC(NS(C)(=O)=O)CC3)ncc2Cl)c(C)c1 [Example A-14]
study system: human Smo (Homo sapiens (Human), UniProt Q99835)
inhibition at 0.05 µM: 95%
//
compound: Cc1cc(F)cnc1-c1cc(N2CCC(NS(=O)(=O)CC(C)(C)O)CC2)ncc1Cl [Example A-153]
study system: human Smo (Homo sapiens (Human), UniProt Q99835)
inhibition at 0.05 µM: 96.4%
//
compound: Cc1cccnc1-c1cc(N2CCC(C(=O)NCC3CN(CC4CC4)C(=O)CO3)CC2)ncc1Cl (stereo not shown) [Example A-74]
study system: human Smo (Homo sapiens (Human), UniProt Q99835)
inhibition at 0.05 µM: 97.8%
//
compound: Cc1cccnc1-c1cc(N2CCC(C(=O)NC3CCS(=O)(=O)CC3)CC2)ncc1Cl [Example A-80]
study system: human Smo (Homo sapiens (Human), UniProt Q99835)
inhibition at 0.05 µM: 101%
//
compound: COc1ccccc1CNC(=O)C1CCN(c2cc(-c3ncccc3C)c(Cl)cn2)CC1 [Example A-79]
study system: human Smo (Homo sapiens (Human), UniProt Q99835)
inhibition at 0.05 µM: 78.4%
//
compound: Cc1cnc(-c2cc(N3CCN(C(=O)CCS(C)(=O)=O)CC3)ncc2Cl)c(C)c1 [Example A-116]
study system: human Smo (Homo sapiens (Human), UniProt Q99835)
inhibition at 0.05 µM: 101%
//
compound: Cc1cnc(-c2cc(N3CCN(C(=O)CC(C)(C)O)CC3)ncc2Cl)c(C)c1 [Example A-103]
study system: human Smo (Homo sapiens (Human), UniProt Q99835)
inhibition at 0.05 µM: 98%
//
compound: Cc1cnc(-c2ccnc(N3CCN(C(=O)CN4C[C@@H](C)O[C@@H](C)C4)CC3)c2)c(C)c1 [Example A-156]
study system: human Smo (Homo sapiens (Human), UniProt Q99835)
inhibition at 0.05 µM: 102%
//
compound: Cc1cccnc1-c1cc(N2CCC(C(=O)N3CCc4c(c(C(C)C)nn4C)C3)CC2)ncc1Cl [Example A-65]
study system: human Smo (Homo sapiens (Human), UniProt Q99835)
inhibition at 0.05 µM: 78.5%
//
compound: CCCNC(=O)COC1CCN(c2cc(-c3ncccc3C)c(Cl)cn2)CC1 [Example A-40]
study system: human Smo (Homo sapiens (Human), UniProt Q99835)
inhibition at 0.05 µM: 70.2%
//
compound: Cc1cccnc1-c1cc(N2CCC(C(=O)N[C@@H]3CCCC[C@H]3O)CC2)ncc1Cl [Example A-81]
study system: human Smo (Homo sapiens (Human), UniProt Q99835)
inhibition at 0.05 µM: 97.9%
//
compound: CS(=O)(=O)NC1CCN(c2cc(-c3ccc(C(F)(F)F)cn3)c(Cl)cn2)CC1 [Example A-13]
study system: human Smo (Homo sapiens (Human), UniProt Q99835)
inhibition at 0.05 µM: 56%
//
compound: O=S(=O)(CCO)N1CCN(c2ccc(Cl)c(-c3ccccn3)n2)CC1 [Example A-137]
study system: human Smo (Homo sapiens (Human), UniProt Q99835)
inhibition at 0.05 µM: 45.8%
//
compound: Cc1cccnc1-c1cc(N2CCC(C(=O)N[C@H]3CCN(S(C)(=O)=O)C3)CC2)ncc1Cl [Example A-60]
study system: human Smo (Homo sapiens (Human), UniProt Q99835)
inhibition at 0.05 µM: 83.8%
//
compound: Cc1cccnc1-c1nc(N2CCC(O)CC2)ncc1Cl [Example A-30]
study system: human Smo (Homo sapiens (Human), UniProt Q99835)
inhibition at 0.05 µM: 77.7%
//
compound: Cc1cc(F)cnc1-c1cc(N2CCC(NC(=O)CCS(C)(=O)=O)CC2)ncc1Cl [Example A-144]
study system: human Smo (Homo sapiens (Human), UniProt Q99835)
inhibition at 0.05 µM: 91.3%
//
compound: Cc1cnc(-c2cc(N3CCN(C(=O)CCS(C)(=O)=O)CC3)ncc2F)c(C)c1 [Example A-142]
study system: human Smo (Homo sapiens (Human), UniProt Q99835)
inhibition at 0.05 µM: 92.7%
//
compound: Cc1cccnc1-c1cc(N2CCC(C(=O)NC3CCOC3)CC2)ncc1Cl (stereo not shown) [Example A-78]
study system: human Smo (Homo sapiens (Human), UniProt Q99835)
inhibition at 0.05 µM: 70.1%
//
compound: CS(=O)(=O)CC1CCN(c2ncc(Cl)c(-c3ccccn3)n2)CC1 [Example A-92]
study system: human Smo (Homo sapiens (Human), UniProt Q99835)
inhibition at 0.05 µM: 79.8%
//
compound: O=S(=O)(CCO)NC1CCN(c2ccc(Cl)c(-c3ccccn3)n2)CC1 [Example A-126]
study system: human Smo (Homo sapiens (Human), UniProt Q99835)
inhibition at 0.05 µM: 96.1%
//
compound: Cc1cnc(-c2cc(N3CCC(NS(=O)(=O)C4CC4)CC3)ncc2Cl)c(C)c1 [Example A-127]
study system: human Smo (Homo sapiens (Human), UniProt Q99835)
inhibition at 0.05 µM: 97.8%
//
compound: Cc1cccnc1-c1ccnc(N2CCC(NS(C)(=O)=O)CC2)n1 [Example A-50]
study system: human Smo (Homo sapiens (Human), UniProt Q99835)
inhibition at 0.05 µM: 97.1%
//
compound: Cc1cccnc1-c1cc(N2CCC(NC(=O)CCS(C)(=O)=O)CC2)ncc1Cl [Example A-95]
study system: human Smo (Homo sapiens (Human), UniProt Q99835)
inhibition at 0.05 µM: 94%
//
compound: Cc1cnc(-c2cc(N3CCN(S(=O)(=O)CCO)CC3)ncc2Cl)c(C)c1 [Example A-111]
study system: human Smo (Homo sapiens (Human), UniProt Q99835)
inhibition at 0.05 µM: 95%
//
compound: Cc1cccnc1-c1cc(N2CCC(OCC(=O)NC(C)(C)C)CC2)ncc1Cl [Example A-42]
study system: human Smo (Homo sapiens (Human), UniProt Q99835)
inhibition at 0.05 µM: 80.5%
//
compound: Cc1cccnc1-c1cc(N2CCN(c3ncc(Br)cn3)CC2)ncc1Cl [Example A-46]
study system: human Smo (Homo sapiens (Human), UniProt Q99835)
inhibition at 0.05 µM: 97.6%
